Target: HiBiT-tagged BCL-xL (Homo sapiens, UniProt Q07817)
Construct: expressed in transfected cells; host or cells: NCI-H1650 (ATCC No. CRL-5883), engineered HiBiT cell line
Sequence (Q07817 whole entry): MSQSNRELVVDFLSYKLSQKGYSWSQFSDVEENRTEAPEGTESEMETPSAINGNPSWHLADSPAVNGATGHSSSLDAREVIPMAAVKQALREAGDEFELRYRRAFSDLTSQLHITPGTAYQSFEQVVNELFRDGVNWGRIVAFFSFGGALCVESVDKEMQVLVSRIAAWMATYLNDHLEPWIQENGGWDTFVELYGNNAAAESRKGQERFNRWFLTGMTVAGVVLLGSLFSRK
Experiment: NCI-H1650 BCL-xL protein levels, Nano-Glo HiBiT Lytic Detection
Assay type: cell-based
Conditions: NCI-H1650 expressing HiBiT-tagged BCL-xL, overnight incubation, read-out: Bcl-xl HIBIT NCIH1650 DC50
Measurement Name: DC50 (nM)

# Input Smiles, DC50 [nM]
rows = [
    ("Cc1ncsc1-c1ccc(CNC(=O)[C@@H]2C[C@@H](O)CN2C(=O)[C@@H](NC(=O)C2(F)CC2)C(C)(C)C)c(OCCCCCCCCCCCN(C)CCOC23CC4(C)CC(C)(CC(Cn5ncc(-c6ccc(N7CCCc8c7nnc(Nc7nc9ccccc9s7)c8C)nc6C(=O)O)c5C)(C4)C2)C3)c1", 3),
    ("Cc1ncsc1-c1ccc([C@H](C)NC(=O)[C@@H]2C[C@@H](O)CN2C(=O)[C@@H](NC(=O)CCCCCCCN(C)CCOC23CC4(C)CC(C)(CC(Cn5ncc(-c6ccc(N7CCCc8c7nnc(Nc7nc9ccccc9s7)c8C)nc6C(=O)O)c5C)(C4)C2)C3)C(C)(C)C)cc1", 3),
]

P: Cc1ncsc1-c1ccc([C@H](C)NC(=O)[C@@H]2C[C@@H](O)CN2C(=O)[C@@H](NC(=O)CCOCCOCCOCCOCCN(C)CCOC23CC4(C)CC(C)(CC(Cn5ncc(-c6ccc(N7CCCc8c7nnc(Nc7nc9ccccc9s7)c8C)nc6C(=O)O)c5C)(C4)C2)C3)C(C)(C)C)cc1
Q: Cc1ncsc1-c1ccc(CNC(=O)[C@@H]2C[C@@H](O)CN2C(=O)[C@@H](NC(=O)CCCCCCCCCCC(=O)N2CCN(CC#Cc3ccc(OCCCc4sc(N5CCCc6c5nnc(Nc5nc7ccccc7s5)c6C)nc4C(=O)O)c(F)c3)CC2)C(C)(C)C)cc1
Two entries are listed, P and Q . Which one carries the higher DC50? The response must carry the label of the picked entry.
P

---

System: MOLT-4 cells
Test: MOLT-4 cell viability, MTT assay
Type: cell-based
Settings: Homo sapiens, MOLT-4, 48 h
Measurement Name: IC50 (nM)

# Molecule, Numeric Result
rows = [
    ("Cc1ncsc1-c1ccc([C@H](C)NC(=O)[C@@H]2C[C@@H](O)CN2C(=O)[C@@H](NC(=O)CCCCCCN(C)CCOC23CC4(C)CC(C)(CC(Cn5ncc(-c6ccc(N7CCCc8c7nnc(Nc7nc9ccccc9s7)c8C)nc6C(=O)O)c5C)(C4)C2)C3)C(C)(C)C)cc1", 32.1),
]

I: Cc1ncsc1-c1ccc(CNC(=O)[C@@H]2C[C@@H](O)CN2C(=O)[C@@H](NC(=O)CCC(=O)N2CCN(CC#Cc3ccc(OCCCc4sc(N5CCCc6c5nnc(Nc5nc7ccccc7s5)c6C)nc4C(=O)O)c(F)c3)CC2)C(C)(C)C)cc1
II: Cc1c(Nc2nc3ccccc3s2)nnc2c1CCCN2c1nc(C(=O)O)c(CCCOc2ccc(C#CCN3CCN(C(=O)CCCC(=O)NCCOCCNC(=O)COc4cccc5c4C(=O)N(C4CCC(=O)NC4=O)C5=O)CC3)cc2F)s1 (stereo not shown)
III: Cc1ncsc1-c1ccc([C@H](C)NC(=O)[C@@H]2C[C@@H](O)CN2C(=O)[C@@H](NC(=O)CCCCCCCCCCCCCN(C)CCOC23CC4(C)CC(C)(CC(Cn5ncc(-c6ccc(N7CCCc8c7nnc(Nc7nc9ccccc9s7)c8C)nc6C(=O)O)c5C)(C4)C2)C3)C(C)(C)C)cc1
Hello, I need these entries ordered by IC50, highest reading first. Thanks! Labels, requested order.
II, I, III

Measured values drawn from patent US20240376094A2 for this set.
